Source: patent US9765039B2

# Test system: c-myc
# Procedure Summary: Inhibition of c-myc expression in cancer cell lines (mRNA, real-time PCR)
# Format: cell-based
# Design: key: Active: Compounds with an IC50 value less than 30 μM were deemed to be active
# Condition Parameters: Human AML MV4-11 cells, 3 hours
Metric Name: c-myc activity (IC50 < 30 μM)

Worked cases, c-myc activity (IC50 < 30 μM) given:
- COc1cc(OC)c2c(=O)[nH]c(-c3ccc(OC)c(-c4ccc(C(=O)N(C)C)cc4Cl)c3)nc2c1: Active
- COc1cc(OC)c2c(=O)[nH]c(-c3ccc(OCCNC(C)C)c(-c4ccc(C(=O)N(C)C)cc4C)n3)nc2c1: Active
- COc1cc(OC)c2c(=O)[nH]c(-c3ccc(OCCN(C(=O)OC(C)(C)C)C(C)C)c(-c4ccc([S+](C)[O-])cc4)n3)nc2c1 (centres unmarked): Not Active
- COc1cc(OC)c2c(=O)[nH]c(-c3ccc(OCCN4CCOCC4)c(-c4ccc(S(C)(=O)=O)cc4)n3)nc2c1.Cl: Active

// switching to the query molecule
Asked: // query c-myc activity (IC50 < 30 μM) value for entry COc1cc(OC)c2c(=O)[nH]c(-c3ccc(OC4CNC4)c(-c4ccc([S+](C)[O-])cc4)c3)nc2c1 (centres unmarked)
Given back: Not Active
